B1: glmS ribozyme (parent)
chain: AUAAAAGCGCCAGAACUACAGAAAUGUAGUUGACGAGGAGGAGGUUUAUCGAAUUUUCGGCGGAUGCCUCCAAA

# Variants of: B1
# assay-overview: self-cleavage kobs at 160 uM GlcN6P; higher = faster cleavage; RNA array
# details: with glucosamine-6-phosphate
Fewer inactive variants are shown than the library holds.
Lab note: compare self-cleavage kobs at 160 uM GlcN6P against 0.0003 s⁻¹. Equal or greater, write TRUE. Smaller, write FALSE.

Task item: Check the entry G29A G43A : does self-cleavage kobs at 160 uM GlcN6P equal or exceed 0.0003 s⁻¹?
Reply: FALSE

Task item: Check the entry U54A C68U : does self-cleavage kobs at 160 uM GlcN6P equal or exceed 0.0003 s⁻¹?
Reply: FALSE

Task item: Check the entry C34G A42U : does self-cleavage kobs at 160 uM GlcN6P equal or exceed 0.0003 s⁻¹?
Reply: FALSE

Task item: Check the entry C34A U45A : does self-cleavage kobs at 160 uM GlcN6P equal or exceed 0.0003 s⁻¹?
Reply: FALSE

Task item: Check the entry G38A A42G G60A : does self-cleavage kobs at 160 uM GlcN6P equal or exceed 0.0003 s⁻¹?
Reply: FALSE

Task item: Check the entry A14G U45C : does self-cleavage kobs at 160 uM GlcN6P equal or exceed 0.0003 s⁻¹?
Reply: TRUE

Task item: Check the entry C58A U69A : does self-cleavage kobs at 160 uM GlcN6P equal or exceed 0.0003 s⁻¹?
Reply: FALSE

Task item: Check the entry U30A A39G : does self-cleavage kobs at 160 uM GlcN6P equal or exceed 0.0003 s⁻¹?
Reply: TRUE

Task item: Check the entry A14C C71A : does self-cleavage kobs at 160 uM GlcN6P equal or exceed 0.0003 s⁻¹?
Reply: FALSE

Task item: Check the entry U31A G41U : does self-cleavage kobs at 160 uM GlcN6P equal or exceed 0.0003 s⁻¹?
Reply: FALSE

Task item: Check the entry A15G A53C : does self-cleavage kobs at 160 uM GlcN6P equal or exceed 0.0003 s⁻¹?
Reply: TRUE

Task item: Check the entry G13A : does self-cleavage kobs at 160 uM GlcN6P equal or exceed 0.0003 s⁻¹?
Reply: FALSE

Task item: Check the entry A6G A36G U56A : does self-cleavage kobs at 160 uM GlcN6P equal or exceed 0.0003 s⁻¹?
Reply: FALSE

Task item: Check the entry C10G A12G G38C : does self-cleavage kobs at 160 uM GlcN6P equal or exceed 0.0003 s⁻¹?
Reply: FALSE

Task item: Check the entry C16U U55G C68U : does self-cleavage kobs at 160 uM GlcN6P equal or exceed 0.0003 s⁻¹?
Reply: TRUE

Task item: Check the entry C50G U65G : does self-cleavage kobs at 160 uM GlcN6P equal or exceed 0.0003 s⁻¹?
Reply: FALSE

Task item: Check the entry C61A C70A : does self-cleavage kobs at 160 uM GlcN6P equal or exceed 0.0003 s⁻¹?
Reply: FALSE

Task item: Check the entry G43C A48G C71G : does self-cleavage kobs at 160 uM GlcN6P equal or exceed 0.0003 s⁻¹?
Reply: FALSE

Task item: Check the entry C8G C11G C16G C34A : does self-cleavage kobs at 160 uM GlcN6P equal or exceed 0.0003 s⁻¹?
Reply: FALSE

Task item: Check the entry G7A G37A : does self-cleavage kobs at 160 uM GlcN6P equal or exceed 0.0003 s⁻¹?
Reply: FALSE

Task item: Check the entry C10G U49C : does self-cleavage kobs at 160 uM GlcN6P equal or exceed 0.0003 s⁻¹?
Reply: FALSE

Task item: Check the entry C58U G62A : does self-cleavage kobs at 160 uM GlcN6P equal or exceed 0.0003 s⁻¹?
Reply: FALSE

Task item: Check the entry G32U U49C : does self-cleavage kobs at 160 uM GlcN6P equal or exceed 0.0003 s⁻¹?
Reply: FALSE

Task item: Check the entry A42G C71A : does self-cleavage kobs at 160 uM GlcN6P equal or exceed 0.0003 s⁻¹?
Reply: TRUE

Task item: Check the entry G32C A39C : does self-cleavage kobs at 160 uM GlcN6P equal or exceed 0.0003 s⁻¹?
Reply: FALSE

Task item: Check the entry U45G U57C : does self-cleavage kobs at 160 uM GlcN6P equal or exceed 0.0003 s⁻¹?
Reply: FALSE

Task item: Check the entry G9U C16U : does self-cleavage kobs at 160 uM GlcN6P equal or exceed 0.0003 s⁻¹?
Reply: FALSE

Task item: Check the entry C8A C50U U55C : does self-cleavage kobs at 160 uM GlcN6P equal or exceed 0.0003 s⁻¹?
Reply: FALSE

Task item: Check the entry G9C G38C G63U : does self-cleavage kobs at 160 uM GlcN6P equal or exceed 0.0003 s⁻¹?
Reply: FALSE

Task item: Check the entry A33U G38U G41C G66U : does self-cleavage kobs at 160 uM GlcN6P equal or exceed 0.0003 s⁻¹?
Reply: FALSE

Task item: Check the entry G13U C16U : does self-cleavage kobs at 160 uM GlcN6P equal or exceed 0.0003 s⁻¹?
Reply: FALSE

Task item: Check the entry C10A A36U : does self-cleavage kobs at 160 uM GlcN6P equal or exceed 0.0003 s⁻¹?
Reply: FALSE

Task item: Check the entry C8A A15U U47C U55A G63C U65G : does self-cleavage kobs at 160 uM GlcN6P equal or exceed 0.0003 s⁻¹?
Reply: FALSE

Task item: Check the entry G29U A39G U56A : does self-cleavage kobs at 160 uM GlcN6P equal or exceed 0.0003 s⁻¹?
Reply: FALSE

Task item: Check the entry A6C C8A : does self-cleavage kobs at 160 uM GlcN6P equal or exceed 0.0003 s⁻¹?
Reply: FALSE

Task item: Check the entry A52G C68U : does self-cleavage kobs at 160 uM GlcN6P equal or exceed 0.0003 s⁻¹?
Reply: FALSE

Task item: Check the entry G13A A36G : does self-cleavage kobs at 160 uM GlcN6P equal or exceed 0.0003 s⁻¹?
Reply: FALSE

Task item: Check the entry U47G U54C : does self-cleavage kobs at 160 uM GlcN6P equal or exceed 0.0003 s⁻¹?
Reply: TRUE

Task item: Check the entry A48U U57G : does self-cleavage kobs at 160 uM GlcN6P equal or exceed 0.0003 s⁻¹?
Reply: FALSE

Task item: Check the entry C10G A48G A64U U65A : does self-cleavage kobs at 160 uM GlcN6P equal or exceed 0.0003 s⁻¹?
Reply: FALSE

Task item: Check the entry A15C A64G : does self-cleavage kobs at 160 uM GlcN6P equal or exceed 0.0003 s⁻¹?
Reply: TRUE

Task item: Check the entry G13A G59C : does self-cleavage kobs at 160 uM GlcN6P equal or exceed 0.0003 s⁻¹?
Reply: FALSE

Task item: Check the entry C8U A52U C58U A64C C70U : does self-cleavage kobs at 160 uM GlcN6P equal or exceed 0.0003 s⁻¹?
Reply: FALSE

Task item: Check the entry C8U G35C C50U G51U C61G : does self-cleavage kobs at 160 uM GlcN6P equal or exceed 0.0003 s⁻¹?
Reply: FALSE

Task item: Check the entry C10G U30A : does self-cleavage kobs at 160 uM GlcN6P equal or exceed 0.0003 s⁻¹?
Reply: FALSE

Task item: Check the entry C11U U56A : does self-cleavage kobs at 160 uM GlcN6P equal or exceed 0.0003 s⁻¹?
Reply: FALSE

Task item: Check the entry A12C U31A : does self-cleavage kobs at 160 uM GlcN6P equal or exceed 0.0003 s⁻¹?
Reply: TRUE

Task item: Check the entry U46A C70U : does self-cleavage kobs at 160 uM GlcN6P equal or exceed 0.0003 s⁻¹?
Reply: TRUE

Task item: Check the entry G40C C71A : does self-cleavage kobs at 160 uM GlcN6P equal or exceed 0.0003 s⁻¹?
Reply: TRUE

Task item: Check the entry C68A : does self-cleavage kobs at 160 uM GlcN6P equal or exceed 0.0003 s⁻¹?
Reply: FALSE
